target: recombinant human MEK 1 (MAPKK) and recombinant human ERK2 (MAPK); test: Mitogen Activated Protein Kinase (MAPK) Assay, coupled MEK/ERK; details: separate entries = evaluated more than once
pIC50: −log10 of the molar value.
pIC50 for assorted molecules
metric: pIC50

smilesrepr=CCOc1cc2[nH]cc(C#N)c(=O)c2cc1OCC modifiersign== valueobserved=4.00
smilesrepr=COCCOc1cc2ncc(C#N)c(Nc3cccc(Br)c3)c2cc1OCCOC modifiersign== valueobserved=4.15
smilesrepr=COc1cc2ncc(C#N)c(Nc3cccc(C(C)=O)c3)c2cc1OC modifiersign== valueobserved=4.00
smilesrepr=C=CC(=O)Nc1cc(CN(C)C)c2ncc(C#N)c(Nc3cccc(Br)c3)c2c1 modifiersign== valueobserved=4.00
smilesrepr=COc1ccc(OC)c2c(Nc3ccc(Cl)cc3F)c(C#N)cnc12 modifiersign=< valueobserved=4.00
smilesrepr=C=C(CN1CCOCC1)C(=O)Nc1ccc2ncc(C#N)c(Nc3cccc(Br)c3)c2c1 modifiersign== valueobserved=4.00

The measurements presented in this section are drawn from patent US6002008A.
